The origin of these recorded values is ChEMBL document CHEMBL3784976.

Assay: Apparent permeability from apical to basolateral side in MDCK cells expressing control vector after 120 mins by LC-MS/MS analysis
Assay type: ADME, cell-based, Canis lupus familiaris
Conditions: dog

STRUCTURE STRING | Papp A→B at 2 h, ×10⁻⁶ cm/s
Cn1cnc2ncn(Cc3nc(CCc4ccc(Cl)cc4)no3)c(=O)c21 | 44.5

---

In this section, each of the compounds is paired with its reported bioavailability.
Assay: Oral bioavailability in rat at 30 mg/kg
Assay type: ADME, organism-based
Settings: in vivo

STRUCTURE STRING | bioavailability
Cn1cnc2ncn(Cc3nc(CCc4ccc(Cl)cc4)no3)c(=O)c21 | 60%
C/C(=C\c1nc(Cn2cnc3ncccc3c2=O)no1)c1ccc(Cl)cc1 | 32%
O=c1c2cccnc2ncn1Cc1noc(CCc2ccc(Cl)cc2)n1 | 52%

---

Test: Cmax in rat at 30 mg/kg, po
Assay type: ADME, organism-based
Parameters: dose 30 mg/kg, route oral
Conditions: in vivo
OBSERVATION TYPE: Cmax (µM)

STRUCTURE STRING | OBSERVATION TYPE | UNIT INFO | QUANTITATIVE READOUT
Cn1cnc2ncn(Cc3nc(CCc4ccc(Cl)cc4)no3)c(=O)c21 | Cmax | µM | 7.5
C/C(=C\c1nc(Cn2cnc3ncccc3c2=O)no1)c1ccc(Cl)cc1 | Cmax | µM | 8
O=c1c2cccnc2ncn1Cc1noc(CCc2ccc(Cl)cc2)n1 | Cmax | µM | 10.3

---

Target: Transient receptor potential cation channel subfamily A member 1 (Homo sapiens, UniProt O75762)
Sequence (O75762 whole entry): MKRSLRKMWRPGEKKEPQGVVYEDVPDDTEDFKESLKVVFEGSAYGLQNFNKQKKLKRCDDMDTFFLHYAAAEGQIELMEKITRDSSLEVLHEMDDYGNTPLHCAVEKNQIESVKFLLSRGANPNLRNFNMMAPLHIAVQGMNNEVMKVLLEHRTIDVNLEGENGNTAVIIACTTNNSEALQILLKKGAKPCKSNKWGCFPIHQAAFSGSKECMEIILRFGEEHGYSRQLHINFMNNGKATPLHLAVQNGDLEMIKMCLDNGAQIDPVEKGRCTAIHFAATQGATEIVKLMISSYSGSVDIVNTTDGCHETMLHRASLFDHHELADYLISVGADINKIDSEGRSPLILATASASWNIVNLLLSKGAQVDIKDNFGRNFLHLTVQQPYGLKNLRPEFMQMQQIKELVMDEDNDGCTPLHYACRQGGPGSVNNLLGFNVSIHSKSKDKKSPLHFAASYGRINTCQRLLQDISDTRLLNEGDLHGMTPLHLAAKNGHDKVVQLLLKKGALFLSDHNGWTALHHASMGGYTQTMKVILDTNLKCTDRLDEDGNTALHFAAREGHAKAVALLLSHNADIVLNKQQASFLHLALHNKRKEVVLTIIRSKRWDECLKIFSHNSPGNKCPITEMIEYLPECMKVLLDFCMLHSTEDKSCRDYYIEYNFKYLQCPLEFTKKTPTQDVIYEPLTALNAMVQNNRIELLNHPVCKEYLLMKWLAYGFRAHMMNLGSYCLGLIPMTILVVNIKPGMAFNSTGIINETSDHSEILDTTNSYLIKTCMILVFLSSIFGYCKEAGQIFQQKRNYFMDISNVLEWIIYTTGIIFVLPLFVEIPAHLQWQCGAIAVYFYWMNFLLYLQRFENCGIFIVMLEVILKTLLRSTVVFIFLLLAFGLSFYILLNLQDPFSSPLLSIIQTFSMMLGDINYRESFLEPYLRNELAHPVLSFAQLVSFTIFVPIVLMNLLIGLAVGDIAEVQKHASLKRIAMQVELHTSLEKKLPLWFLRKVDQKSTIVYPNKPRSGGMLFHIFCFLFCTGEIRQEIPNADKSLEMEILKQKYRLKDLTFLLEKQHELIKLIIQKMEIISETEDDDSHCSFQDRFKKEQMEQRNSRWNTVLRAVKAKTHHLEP
Test: Antagonist activity at human TRPA1 expressed in tetracycline-inducible T-REx expression system transfected CHO cells assessed as inhibition of AITC-induced 45Ca2+ uptake preincubated for 1 min followed by AITC addition measured after 12 mins
Assay type: cell-based
Label key: y means IC50 under 400 nM; n means IC50 of 400 nM or more.

STRUCTURE STRING | CAT
C/C(=C\c1noc(Cn2cnc3ncn(C)c3c2=O)n1)c1ccc(Cl)cc1 | y
O=c1c2cccnc2ncn1Cc1noc(CCc2ccc(Cl)cc2)n1 | n
O=c1c2cccnc2ncn1Cc1nc(CCc2ccc(Cl)cc2)no1 | y
Cn1cnc2ncn(Cc3nc(CCc4ccc(Cl)cc4)no3)c(=O)c21 | y
Cc1cccc2c(=O)n(CC(=O)NCCc3ccc(OC(F)F)cc3)cnc12 | n

---

Catalogue of molecules with associated IC50
Biological target: Transient receptor potential cation channel subfamily A member 1 (Rattus norvegicus, UniProt Q6RI86)
Sequence (Q6RI86 whole entry): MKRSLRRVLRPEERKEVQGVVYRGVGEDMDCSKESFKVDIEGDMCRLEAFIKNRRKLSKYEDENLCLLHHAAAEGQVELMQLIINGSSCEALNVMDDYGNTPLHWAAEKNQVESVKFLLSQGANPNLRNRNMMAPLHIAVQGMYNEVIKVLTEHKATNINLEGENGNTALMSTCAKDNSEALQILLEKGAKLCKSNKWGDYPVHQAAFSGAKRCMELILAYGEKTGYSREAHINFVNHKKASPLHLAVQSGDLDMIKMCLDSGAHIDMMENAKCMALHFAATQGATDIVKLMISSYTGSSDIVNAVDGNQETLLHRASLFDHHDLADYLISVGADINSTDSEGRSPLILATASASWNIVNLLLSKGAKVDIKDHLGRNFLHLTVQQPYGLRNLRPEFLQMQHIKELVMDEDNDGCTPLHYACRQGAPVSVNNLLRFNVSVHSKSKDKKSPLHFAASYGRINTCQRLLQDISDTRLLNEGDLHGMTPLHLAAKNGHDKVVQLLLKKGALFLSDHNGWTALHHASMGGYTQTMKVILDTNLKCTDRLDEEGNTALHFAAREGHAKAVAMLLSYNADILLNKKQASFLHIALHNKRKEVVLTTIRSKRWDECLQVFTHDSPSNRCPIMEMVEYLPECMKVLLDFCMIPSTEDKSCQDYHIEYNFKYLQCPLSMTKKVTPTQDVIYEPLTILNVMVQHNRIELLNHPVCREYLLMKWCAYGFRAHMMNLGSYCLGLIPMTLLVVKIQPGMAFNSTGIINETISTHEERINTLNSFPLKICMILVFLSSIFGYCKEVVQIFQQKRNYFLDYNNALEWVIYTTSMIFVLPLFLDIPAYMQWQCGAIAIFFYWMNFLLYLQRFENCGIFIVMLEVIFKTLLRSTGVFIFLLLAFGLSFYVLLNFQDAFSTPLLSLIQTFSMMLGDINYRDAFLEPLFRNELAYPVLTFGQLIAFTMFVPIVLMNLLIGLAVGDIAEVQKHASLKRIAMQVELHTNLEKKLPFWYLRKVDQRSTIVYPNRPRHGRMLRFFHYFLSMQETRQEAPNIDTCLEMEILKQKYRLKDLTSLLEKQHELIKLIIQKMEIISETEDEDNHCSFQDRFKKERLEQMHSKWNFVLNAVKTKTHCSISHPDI
Test: Antagonist activity at rat TRPA1 expressed in tetracycline-inducible T-REx expression system transfected CHO cells assessed as inhibition of AITC-induced Ca2+ influx preincubated for 2 mins followed by AITC addition measured for 2 mins by Fluo-4 dye based FLIPR assay
Type: cell-based
OBSERVATION TYPE: IC50

MOLECULE | RESULT
O=C(Cn1cnc2c(C(F)(F)F)cccc2c1=O)NCCc1ccc(Cl)cc1 | 306 nM
O=C(Cn1cnc2c(F)cccc2c1=O)NCCc1ccc(Cl)cc1 | 791 nM
C/C(=C\c1nc(Cn2cnc3ncn(C)c3c2=O)no1)c1ccc(Cl)cc1 | 274 nM
O=c1c2cccnc2ncn1Cc1nc(CCc2ccc(Cl)cc2)no1 | 21 nM
N#Cc1cccc2c(=O)n(CC(=O)NCCc3ccc(Cl)cc3)cnc12 | 56 nM
Cc1cccc2c(=O)n(CC(=O)NCCc3ccc(OC(F)F)cc3)cnc12 | 142 nM
Cc1ccnc2ncn(Cc3nc(CCc4ccc(Cl)cc4)no3)c(=O)c12 | 35 nM
Cc1ccc2ncn(CC(=O)NCCc3ccc(Cl)cc3)c(=O)c2c1 | 287 nM
COc1ccccc1CCNC(=O)Cn1cnc2c(C)cccc2c1=O | > 16700 nM
COc1cccc(CCNC(=O)Cn2cnc3c(C)cccc3c2=O)c1 | > 16700 nM
Cc1ccc2c(=O)n(CC(=O)NCCc3ccc(Cl)cc3)cnc2c1 | > 16700 nM
C/C(=C\c1noc(Cn2cnc3ncn(C)c3c2=O)n1)c1ccc(Cl)cc1 | 75 nM
O=c1c2cccnc2ncn1Cc1nc(CC(F)c2ccc(Cl)cc2)no1 (racemic) | 31 nM
Cc1cccc2ncn(CC(=O)NCCc3ccc(Cl)cc3)c(=O)c12 | 112 nM
Cn1cnc2ncn(Cc3nc(CCc4ccc(Cl)cc4)no3)c(=O)c21 | 20 nM
O=C(Cn1cnc2cnccc2c1=O)NCCc1ccc(Cl)cc1 | 1080 nM
Cn1cnc2ncn(Cc3noc(CCc4ccc(Cl)cc4)n3)c(=O)c21 | 136 nM
Cc1cccc2c(=O)n(CC(=O)NCCc3ccc(Cl)cc3)cnc12 | 358 nM
O=C(Cn1cnc2ncccc2c1=O)NCCc1ccc(Cl)cc1 | 1170 nM
COc1cccc2c(=O)n(CC(=O)NCCc3ccc(Cl)cc3)cnc12 | 2150 nM
COc1ccc(CCNC(=O)Cn2cnc3c(C)cccc3c2=O)cc1 | 1370 nM
O=c1c2cccnc2ncn1Cc1noc(CCc2ccc(Cl)cc2)n1 | 89 nM
